Sourced from the supplement of paper PMC12669032

Tested on: Eubacterium rectale
Procedure Summary: growth AUC relative to DMSO control (median of replicates) (fraction); higher = more growth (less inhibition), active = hit call of the paper
Condition Parameters: 20 µM; 24 h
Measured Attribute: growth AUC

The examples below pair each entry with its known result.
Compound	Tested System	growth AUC
Nc1c(Cl)c(Cl)c(Cl)c(Cl)c1Cl	Eubacterium rectale	1.01 (inactive)
Cc1[nH]c(=O)n(C(C)(C)C)c(=O)c1Cl	Eubacterium rectale	1.01 (inactive)
ClCC1C(CCl)C2(Cl)C(Cl)=C(Cl)C1(Cl)C2(Cl)Cl (stereo unspecified)	Eubacterium rectale	1.02 (inactive)
Cc1nnc(-c2ccccc2)c(=O)n1N	Eubacterium rectale	0.993 (inactive)
Cc1cc(Cl)ccc1O	Eubacterium rectale	1.02 (inactive)
COP(=O)(OC)OC1=C(Cl)C2C=CCC12 (stereo unspecified)	Eubacterium rectale	1.01 (inactive)

# compound `Oc1ccc(-c2ccccc2)cc1` ; its growth AUC = 1 (inactive)

# compound `CCNc1nc(NCC)nc(SC)n1` ; its growth AUC = 1.02 (inactive)

# compound `O=C(O)CCl` ; its growth AUC = 0.974 (inactive)

# compound `COP(=O)(OC)SCn1c(=O)oc2cc(Cl)cnc21` ; its growth AUC = 0.986 (inactive)

# compound `COP(=S)(OC)Oc1ccc(Sc2ccc(OP(=S)(OC)OC)cc2)cc1` ; its growth AUC = 1.01 (inactive)

====

Listing: growth AUC of selected compounds
Test system: Lactobacillus paracasei
Procedure Summary: growth AUC relative to DMSO control (median of replicates) (fraction); higher = more growth (less inhibition), active = hit call of the paper
Condition Parameters: 20 µM; 24 h
Just the number, please, no unit attached.

Compound	growth AUC
CCOC(=O)OC1=C(c2cc(C)ccc2C)C(=O)NC12CCC(OC)CC2 (stereo not given)	0.992
COP(=S)(OC)Oc1cc(Cl)c(I)cc1Cl	1
COCC(=O)N(c1c(C)cccc1C)[C@@H](C)C(=O)OC	1.01

# compound `O=C(NC(=O)c1c(F)cccc1F)Nc1ccc(Oc2ccc(C(F)(F)F)cc2Cl)cc1F` ; its growth AUC = 0.974

# compound `C=CCNC(=O)c1c([Si](C)(C)C)sc(C)c1C` ; its growth AUC = 0.986

====

System: Lactobacillus gasseri
Procedure Summary: growth AUC relative to DMSO control (median of replicates) (fraction); higher = more growth (less inhibition), active = hit call of the paper
Condition Parameters: 20 µM; 24 h
Assign label 1 to entries whose growth AUC meets or exceeds 0.9; assign label 0 to the rest.

## Input Check the entry `CNC(=O)Oc1cc(C)c(N(C)C)c(C)c1` : does growth AUC equal or exceed 0.9?
## Output label 1

## Input Check the entry OC[C@@H](O)[C@H]1O[C@@H]2O[C@H](C(Cl)(Cl)Cl)O[C@@H]2[C@H]1O (mixture of isomers) : does growth AUC equal or exceed 0.9?
## Output label 1

## Input Check the entry `Oc1ccc(C(c2ccc(O)cc2)(C(F)(F)F)C(F)(F)F)cc1` : does growth AUC equal or exceed 0.9?
## Output label 0

## Input Check the entry `CC(C)N(Cc1ccccc1)C(=O)C(C)(C)C` : does growth AUC equal or exceed 0.9?
## Output label 0

## Input Check the entry `NCCO.O=C(O)c1nc(Cl)ccc1Cl` : does growth AUC equal or exceed 0.9?
## Output label 1

## Input Check the entry `CON(C)C(=O)Nc1ccc(Br)c(Cl)c1` : does growth AUC equal or exceed 0.9?
## Output label 1

## Input Check the entry CP(=O)(O)CCC(N)C(=O)[O-].[NH4+] (centres undefined) : does growth AUC equal or exceed 0.9?
## Output label 1

## Input Check the entry `O=[N+]([O-])c1ccc2ccc3cccc4ccc1c2c34` : does growth AUC equal or exceed 0.9?
## Output label 1

====

Listing: growth AUC of selected compounds
Test system: Collinsella aerofaciens
Procedure Summary: growth AUC relative to DMSO control (median of replicates) (fraction); higher = more growth (less inhibition), active = hit call of the paper
Condition Parameters: 20 µM; 24 h
Just the number, please, no unit attached.

The examples below pair each entry with its known result.
Compound	Tested System	growth AUC
O=[N+]([O-])c1c(Cl)c(Cl)c(Cl)c(Cl)c1Cl	Collinsella aerofaciens	1.04
CC1(C)CCC(Cc2ccc(Cl)cc2)C1(O)Cn1cncn1 (stereo not given)	Collinsella aerofaciens	0.95

# compound `N#Cc1c(Cl)c(Cl)c(Cl)c(C#N)c1Cl` ; its growth AUC = 0.864

# compound COP1(=S)OCc2ccccc2O1 (stereo not given) ; its growth AUC = 1.04

====

Listing: growth AUC of selected compounds
Tested on: Collinsella aerofaciens
Procedure Summary: growth AUC relative to DMSO control (median of replicates) (fraction); higher = more growth (less inhibition), active = hit call of the paper
Condition Parameters: 20 µM; 24 h
Just the number, please, no unit attached.

Compound	Recorded Number
CCOc1nc(NC)nc(NC(=O)NS(=O)(=O)c2ccccc2C(=O)OC)n1	0.992

# compound `CCC(C)(c1ccc(O)cc1)c1ccc(O)cc1` ; its growth AUC = 1

# compound `O=C(O)C(F)(F)C(F)(F)C(F)(F)C(F)(F)C(F)(F)C(F)(F)C(F)(F)C(F)(F)F` ; its growth AUC = 0.997

# compound `Clc1nc(Cl)nc(Nc2ccccc2Cl)n1` ; its growth AUC = 1.01

# compound `CCC(C)(C)C(=O)OC1=C(c2ccc(Cl)cc2Cl)C(=O)OC12CCCCC2` ; its growth AUC = 0.987

# compound CC(C)(C)C(=O)C(Oc1ccc(Cl)cc1)n1cncn1 (stereo not given) ; its growth AUC = 1.01

# compound `Clc1cc(Cl)c(Cl)c(Cl)c1` ; its growth AUC = 0.922

# compound `O=c1[nH]c(Cl)c(Cl)cc1Cl` ; its growth AUC = 1.01

====

Listing: growth AUC of selected molecules
Tested on: Odoribacter splanchnicus
Procedure Summary: growth AUC relative to DMSO control (median of replicates) (fraction); higher = more growth (less inhibition), active = hit call of the paper
Condition Parameters: 20 µM; 24 h
Just the number, please, no unit attached.

The examples below pair each entry with its known result.
Molecule	Tested System	Recorded Number
O=c1[nH]c(Cl)c(Cl)cc1Cl	Odoribacter splanchnicus	0.942
CCCCCCCCCc1ccc(O)cc1	Odoribacter splanchnicus	0.841
CC1=C(C(=O)Nc2ccccc2)SCCO1	Odoribacter splanchnicus	0.985

# molecule `COC(=O)c1ccccc1S(=O)(=O)NC(=O)Nc1nc(C)nc(OC)n1` ; its growth AUC = 1.07

# molecule CCCSP(=O)(OCC)Oc1ccc(Br)cc1Cl (stereo not given) ; its growth AUC = 1.04

# molecule `COP(=S)(OC)Oc1ccc(S(C)(=O)=O)c(C)c1` ; its growth AUC = 1.03

# molecule `CC(C)OC(=O)Nc1cccc(Cl)c1` ; its growth AUC = 1.13

====

System: Bacteroides dorei
Procedure Summary: growth AUC relative to DMSO control (median of replicates) (fraction); higher = more growth (less inhibition), active = hit call of the paper
Condition Parameters: 20 µM; 24 h
Measured Attribute: growth AUC
Just the number, please, no unit attached.

Compound	growth AUC
COP(=S)(OC)Oc1ccc(S(N)(=O)=O)cc1	1

Let me check: `O=C(NC(=O)c1c(F)cccc1F)Nc1ccc(Oc2ccc(C(F)(F)F)cc2Cl)cc1F` , system Bacteroides dorei, measured growth AUC is 1.02

Let me check: `CCNc1nc(NC(C)C)nc(SC)n1` , system Bacteroides dorei, measured growth AUC is 0.976

Let me check: C=CC1(C)OC(=O)N(c2cc(Cl)cc(Cl)c2)C1=O (centres undefined) , system Bacteroides dorei, measured growth AUC is 1

====

Test system: Streptococcus salivarius
Procedure Summary: growth AUC relative to DMSO control (median of replicates) (fraction); higher = more growth (less inhibition), active = hit call of the paper
Condition Parameters: 20 µM; 24 h
Measured Attribute: growth AUC
Just the number, please, no unit attached.

Compound	growth AUC
CNC(=O)Oc1ccccc1OC(C)C	0.98
Cc1ccn2nc(S(=O)(=O)Nc3c(F)cccc3F)nc2n1	0.965
Nc1cc(Cl)cc(Cl)c1	1.01
CCCCc1c(C)nc(N(C)C)[nH]c1=O	1.02
CN(C)NC(=O)CCC(=O)O	0.951
CC(C)=CC1C(C(=O)OC(C#N)c2cccc(Oc3ccccc3)c2)C1(C)C (mixture of isomers)	0.988
C=CCC1=C(C)C(OC(=O)C2C(C=C(C)C)C2(C)C)CC1=O (stereo not given)	0.986
CNC(=O)Oc1ccccc1OC(CCl)OC (stereo not given)	0.996
Cc1ccc(N=CN(C)C=Nc2ccc(C)cc2C)c(C)c1	0.967

Please turn your attention to the following entry.
# compound `BrCCBr` ; its growth AUC = 1.01

====

Tested on: Streptococcus salivarius
Procedure Summary: growth AUC relative to DMSO control (median of replicates) (fraction); higher = more growth (less inhibition), active = hit call of the paper
Condition Parameters: 20 µM; 24 h
Listing: growth AUC of selected compounds
Just the number, please, no unit attached.

CNC(=O)Oc1cc(C)c(S(C)(=O)=O)c(C)c1 0.945
CC(C)(O)C(Cl)(Cl)Cl.CC(C)(O)C(Cl)(Cl)Cl.O 1.05
CCCOc1nn(C(=O)[N-]S(=O)(=O)c2ccccc2C(=O)OC)c(=O)n1C.[Na+] 0.981

# compound `Cc1cc(Cl)ccc1O` ; its growth AUC = 1.04

# compound `Oc1ccc(C(c2ccc(O)cc2)(C(F)(F)F)C(F)(F)F)cc1` ; its growth AUC = 0.85

# compound `O=NN(CCO)CCO` ; its growth AUC = 0.986

# compound `CCOc1ccccc1OS(=O)(=O)NC(=O)Nc1nc(OC)cc(OC)n1` ; its growth AUC = 0.966

# compound `Oc1ccc(-c2ccccc2)cc1` ; its growth AUC = 0.968

# compound `CON(C)C(=O)Nc1ccc(Cl)c(Cl)c1` ; its growth AUC = 0.945

# compound `CCCN(CCC)c1c([N+](=O)[O-])cc(C(C)C)cc1[N+](=O)[O-]` ; its growth AUC = 0.99

# compound `Nc1ccncc1` ; its growth AUC = 0.981
